# SYSTEM_TESTED: BRM (Homo sapiens, UniProt P51531)
# Sequence (P51531 whole entry): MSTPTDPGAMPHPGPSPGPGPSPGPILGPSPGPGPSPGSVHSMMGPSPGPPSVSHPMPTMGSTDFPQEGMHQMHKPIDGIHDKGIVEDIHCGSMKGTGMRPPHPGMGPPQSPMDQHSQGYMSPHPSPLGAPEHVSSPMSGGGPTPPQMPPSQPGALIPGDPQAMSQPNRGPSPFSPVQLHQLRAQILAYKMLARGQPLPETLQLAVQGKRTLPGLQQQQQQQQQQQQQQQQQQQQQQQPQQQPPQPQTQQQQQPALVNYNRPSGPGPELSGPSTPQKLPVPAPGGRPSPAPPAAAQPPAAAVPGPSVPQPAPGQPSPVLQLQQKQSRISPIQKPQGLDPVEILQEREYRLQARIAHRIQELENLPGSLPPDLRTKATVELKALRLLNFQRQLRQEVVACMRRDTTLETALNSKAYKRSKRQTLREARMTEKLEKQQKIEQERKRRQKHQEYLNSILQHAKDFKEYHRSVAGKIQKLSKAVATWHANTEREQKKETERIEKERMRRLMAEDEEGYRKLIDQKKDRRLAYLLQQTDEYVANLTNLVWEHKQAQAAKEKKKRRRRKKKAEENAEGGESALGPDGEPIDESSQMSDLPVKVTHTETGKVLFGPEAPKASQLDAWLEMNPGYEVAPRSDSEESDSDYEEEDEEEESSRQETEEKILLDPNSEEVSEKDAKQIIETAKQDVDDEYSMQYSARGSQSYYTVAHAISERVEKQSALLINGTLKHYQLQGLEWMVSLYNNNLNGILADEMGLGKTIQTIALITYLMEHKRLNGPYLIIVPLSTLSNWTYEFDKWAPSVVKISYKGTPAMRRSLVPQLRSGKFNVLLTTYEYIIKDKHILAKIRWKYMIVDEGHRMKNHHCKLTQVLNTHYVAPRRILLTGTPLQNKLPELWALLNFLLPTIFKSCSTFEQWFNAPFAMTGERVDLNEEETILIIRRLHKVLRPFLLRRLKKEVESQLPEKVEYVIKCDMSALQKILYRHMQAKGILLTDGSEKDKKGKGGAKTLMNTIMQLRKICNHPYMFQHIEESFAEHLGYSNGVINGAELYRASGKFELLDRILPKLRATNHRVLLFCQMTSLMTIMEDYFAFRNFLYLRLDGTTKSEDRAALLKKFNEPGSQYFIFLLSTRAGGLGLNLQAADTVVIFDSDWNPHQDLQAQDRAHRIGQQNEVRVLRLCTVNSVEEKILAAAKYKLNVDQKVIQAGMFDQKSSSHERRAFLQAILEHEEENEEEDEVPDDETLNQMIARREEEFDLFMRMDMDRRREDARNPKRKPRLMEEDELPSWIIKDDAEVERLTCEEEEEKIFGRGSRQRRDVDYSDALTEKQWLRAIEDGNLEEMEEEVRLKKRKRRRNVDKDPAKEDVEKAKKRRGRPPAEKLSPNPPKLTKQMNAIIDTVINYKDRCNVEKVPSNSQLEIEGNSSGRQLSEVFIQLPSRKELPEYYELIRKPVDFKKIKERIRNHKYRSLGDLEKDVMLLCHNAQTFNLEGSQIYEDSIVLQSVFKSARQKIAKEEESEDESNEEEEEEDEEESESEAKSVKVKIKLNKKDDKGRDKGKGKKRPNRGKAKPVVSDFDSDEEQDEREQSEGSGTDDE
# METHOD_DESCRIPTION: ATPase catalytic activity of BRM (ADP-Glo in vitro biochemical assay)
# CONDITIONS: Table 6
PARAMETER_MEASURED: BRM Max % Inhibition

COMPOUND	BRM Max % Inhibition
CC(=O)N(C)c1cc(-c2cccc(-c3csc(NC(=O)CNC(=O)c4ccc(N)cc4)n3)c2)ccn1	>95%
Nc1ccc(C(=O)NCC(=O)Nc2nc(-c3cccc(N4CCC[C@@H](O)C4)c3)cs2)cc1	>90%
Cn1ncc2ccc(-c3csc(NC(=O)CNC(=O)c4ccc(N)cc4)n3)cc21	>90%
Nc1ccc(C(=O)NCC(=O)Nc2nc(C3CCCN(c4cccnc4)C3)cs2)cc1 (centres unmarked)	>90%

Let us examine a further case.
Identify measured BRM Max % Inhibition associated with NC[C@H]1CC[C@@H](c2cccc(-c3csc(NC(=O)CNC(=O)c4ccc(N)cc4)n3)c2)CC1
>90%
